# experimentalTarget: T1, EsCas13d, nuclease-dead (Eubacterium siraeum, UniProt B0MS50, R295A;H300A;R849A;H854A)
# T1 sequence: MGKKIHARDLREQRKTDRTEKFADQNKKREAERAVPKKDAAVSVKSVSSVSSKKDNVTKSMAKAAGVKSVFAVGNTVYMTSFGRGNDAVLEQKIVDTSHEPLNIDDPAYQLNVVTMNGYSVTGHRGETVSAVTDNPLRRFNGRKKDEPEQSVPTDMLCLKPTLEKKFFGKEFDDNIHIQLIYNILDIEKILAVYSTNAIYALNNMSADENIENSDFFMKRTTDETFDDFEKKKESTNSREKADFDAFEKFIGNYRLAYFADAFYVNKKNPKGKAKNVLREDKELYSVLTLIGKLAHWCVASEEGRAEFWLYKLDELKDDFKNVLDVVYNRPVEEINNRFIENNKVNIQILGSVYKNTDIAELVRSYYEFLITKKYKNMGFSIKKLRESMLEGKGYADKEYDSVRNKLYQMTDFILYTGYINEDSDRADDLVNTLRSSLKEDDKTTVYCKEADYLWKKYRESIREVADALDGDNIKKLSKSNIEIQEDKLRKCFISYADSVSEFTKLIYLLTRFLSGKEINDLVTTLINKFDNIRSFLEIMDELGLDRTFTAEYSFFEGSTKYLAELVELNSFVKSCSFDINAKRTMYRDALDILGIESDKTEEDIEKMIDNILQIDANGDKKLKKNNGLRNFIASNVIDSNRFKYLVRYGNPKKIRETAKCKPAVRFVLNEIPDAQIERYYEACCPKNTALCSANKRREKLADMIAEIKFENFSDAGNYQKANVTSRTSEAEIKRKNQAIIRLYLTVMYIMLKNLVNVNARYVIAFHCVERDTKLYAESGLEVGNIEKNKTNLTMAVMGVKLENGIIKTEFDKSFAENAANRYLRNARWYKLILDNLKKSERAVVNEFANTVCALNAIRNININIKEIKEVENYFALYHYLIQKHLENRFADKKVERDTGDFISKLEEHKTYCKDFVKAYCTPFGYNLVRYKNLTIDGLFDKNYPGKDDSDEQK
# runDescription: BLI; crRNA (strand 1, pre-loaded); Mg2+; 40 mM Tris-HCl pH 7.5, 150 mM NaCl, 6 mM MgCl2, 1 mM DTT, 0.1% Tween-20, 0.2 mg/ml BSA; temperature not stated
# statedConditions: tags: His6-TwinStrep-SUMO cleaved; label: 3' biotin on strand 2
Entries and their pKd
// pKd here means minus log10 of the molar concentration (mol/L)

target 1 G15A (60-mer) (mixed) RNA 1: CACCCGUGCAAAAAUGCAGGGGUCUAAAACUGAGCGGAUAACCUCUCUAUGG RNA 2: CCACAUCUACGAAUUCGUACCAUAGAAAGGUUAUCCGCUCACCGAGAUCGGAAGAGCACA | 8.47

Attention now shifts to the item below.
Input line: In one line, give reported pKd of the entry target 1 3'-UGG (60-mer) (mixed) RNA 1: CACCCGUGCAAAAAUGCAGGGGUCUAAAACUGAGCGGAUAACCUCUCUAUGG RNA 2: CCACAUCUACGAAUUCGUACCAUAGAGAGGUUAUCCGCUCAUGGAGAUCGGAAGAGCACA .
Output line: 8.07

Data origin: paper PMC10786891
